- assay system: UniProtKB Q14432
- Sequence (Q14432 whole entry): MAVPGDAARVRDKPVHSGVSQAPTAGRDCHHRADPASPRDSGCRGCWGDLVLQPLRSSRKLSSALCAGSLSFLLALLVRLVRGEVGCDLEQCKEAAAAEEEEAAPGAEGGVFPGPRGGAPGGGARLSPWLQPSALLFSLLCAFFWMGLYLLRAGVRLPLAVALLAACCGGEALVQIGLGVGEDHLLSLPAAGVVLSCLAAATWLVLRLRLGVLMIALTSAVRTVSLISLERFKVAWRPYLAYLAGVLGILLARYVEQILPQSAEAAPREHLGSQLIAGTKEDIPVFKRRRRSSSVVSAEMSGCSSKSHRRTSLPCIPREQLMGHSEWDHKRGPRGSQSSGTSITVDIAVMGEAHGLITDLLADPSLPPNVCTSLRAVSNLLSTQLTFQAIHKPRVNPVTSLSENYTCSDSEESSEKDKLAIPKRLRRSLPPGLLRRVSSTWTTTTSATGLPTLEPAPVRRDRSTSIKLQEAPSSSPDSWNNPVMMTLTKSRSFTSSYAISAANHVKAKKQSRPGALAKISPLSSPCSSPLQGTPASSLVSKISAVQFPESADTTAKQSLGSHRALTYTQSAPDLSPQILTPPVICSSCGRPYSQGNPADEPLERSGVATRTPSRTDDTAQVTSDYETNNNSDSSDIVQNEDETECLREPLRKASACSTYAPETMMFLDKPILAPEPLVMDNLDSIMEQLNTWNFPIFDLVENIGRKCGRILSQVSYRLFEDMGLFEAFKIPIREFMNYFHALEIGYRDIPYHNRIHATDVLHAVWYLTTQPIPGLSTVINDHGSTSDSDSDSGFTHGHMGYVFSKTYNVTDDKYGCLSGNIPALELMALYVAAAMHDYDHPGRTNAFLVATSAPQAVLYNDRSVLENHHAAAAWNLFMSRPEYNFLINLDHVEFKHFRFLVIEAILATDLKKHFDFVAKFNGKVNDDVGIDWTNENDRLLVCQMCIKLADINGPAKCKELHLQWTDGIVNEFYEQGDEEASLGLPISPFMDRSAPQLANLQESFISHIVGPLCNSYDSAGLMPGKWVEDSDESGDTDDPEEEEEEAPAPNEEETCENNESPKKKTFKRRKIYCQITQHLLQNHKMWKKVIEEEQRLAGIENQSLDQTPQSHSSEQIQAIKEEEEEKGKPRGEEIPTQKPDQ
- test protocol: Inhibition of human recombinant PDE3A assessed reduction in [3H]cAMP hydrolysis preincubated with enzyme for 5 mins prior to substrate addition measured after 20 mins by scintillation proximity assay
readout type: IC50 (µM)
Answer with a number only, understood to be in µM.

Solved cases below.
>>> df
                               entry_smiles      assay_system  recorded_measurement
0  COc1cc(COc2ccc(-c3c(-c4ccncc4)cnn3C)cc2)nc2ccccc12  UniProtKB Q14432                    29
1  COc1ccc2nc(COc3ccc(-c4c(-c5ccncc5)cnn4C)cc3)ccc2c1  UniProtKB Q14432                   1.5
2  COc1cc(COc2ccc(-c3nn(C)cc3-c3ccncc3)cc2)nc2ccccc12  UniProtKB Q14432                  27.5
3  COc1cc2ccccc2nc1COc1ccc(-c2nn(C)cc2-c2ccncc2)cc1  UniProtKB Q14432                   123
4  COc1ccc2nc(COc3ccc(-c4nn(C)cc4-c4ccncc4)cc3)ccc2c1  UniProtKB Q14432                    78

Q. For the compound COc1cc2ccccc2nc1COc1ccc(-c2c(-c3ccncc3)cnn2C)cc1 , what IC50 is on record?
A. 18.7
